Reference for the values: PubChem BioAssay (NCI)

# procedure_text: NCI Yeast Anticancer Drug Screen. Data for the sgs1 mgt1 strain (AID 161);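 also: 0% = growth of cultures given vehicle only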
# measurement_conditions: S. cerevisiae sgs1 mgt1 strain, at 50.0 µM, stronger effect = higher value
Compounds without any hit were thinned out: in the full panel of roughly 79,000, 15% have a hit.
Label true (1) when growth inhibition >= 90%; otherwise false (0).

Prompt: Given C/C(=N\O)C(CN(C)C)C(c1ccccc1)c1c(O)c2ccccc2oc1=O (stereo not drawn) , state whether its growth inhibition is at least 90%.
Completion: false (0)

Prompt: Given N#Cc1ccc([Se]c2ccccc2)cc1 , state whether its growth inhibition is at least 90%.
Completion: false (0)

Prompt: Given O=P(CP(=O)(c1ccccc1)c1ccccc1)(c1ccccc1)c1ccccc1.[CH3][Sn]([CH3])([Cl])[Cl] , state whether its growth inhibition is at least 90%.
Completion: false (0)

Prompt: Given COc1ccc(CC2C(=O)NC(C)C(=O)N(C)C3C(=O)N(C)C(Cc4ccc(O)c(c4)Oc4ccc(cc4)C3O)C(=O)NC(C)C(=O)NC(C)C(=O)N2C)cc1 (stereo not drawn) , state whether its growth inhibition is at least 90%.
Completion: false (0)

Prompt: Given C[C@]12CC[C@H](OC(=O)COc3ccc(N(CCCl)CCCl)cc3)C[C@@H]1CC[C@@H]1[C@@H]2CC[C@]2(C)NC(=O)CC[C@@H]12 , state whether its growth inhibition is at least 90%.
Completion: false (0)

Prompt: Given CNC1=C(C)C(=O)C2=C(C1=O)C(COC(N)=O)C1(O)C3C(CN21)N3C (stereo not drawn) , state whether its growth inhibition is at least 90%.
Completion: false (0)

Prompt: Given O=Cc1ccc(C(F)(F)F)cc1.[C-]#[O+].[C-]#[O+].[C-]#[O+].[Cr] , state whether its growth inhibition is at least 90%.
Completion: false (0)

Prompt: Given CC1=C(O)C(=O)C=C2C1=CC=C1[C@@]2(C)CCC2(C)[C@@H]3C[C@@H](C)C(=O)C[C@]3(C)CC[C@]12C (stereo partly drawn) , state whether its growth inhibition is at least 90%.
Completion: false (0)

Prompt: Given O=C(CCl)c1ccc(O)cc1 , state whether its growth inhibition is at least 90%.
Completion: true (1)

Prompt: Given CN1c2cccc[c]2[Sn]([CH3])([CH3])[c]2ccccc21 , state whether its growth inhibition is at least 90%.
Completion: true (1)

Prompt: Given CC(C)NCC(O)c1ccc(O)c(O)c1.[Pt].c1ccc([PH+](c2ccccc2)c2ccccc2)cc1.c1ccc([PH+](c2ccccc2)c2ccccc2)cc1 , state whether its growth inhibition is at least 90%.
Completion: true (1)

Prompt: Given CCCOc1ccc(/C=C/[N+](=O)[O-])cc1N , state whether its growth inhibition is at least 90%.
Completion: true (1)

Prompt: Given Cc1cccc(C)c1NC(=O)/C(CC(=O)CC(c1ccccc1)c1c(O)c2ccccc2oc1=O)=N/O (stereo not drawn) , state whether its growth inhibition is at least 90%.
Completion: false (0)

Prompt: Given CC#N.FC(F)(F)C#CC(F)(F)F.FC(F)(F)C#CC(F)(F)F.FC(F)(F)C#CC(F)(F)F.[W] , state whether its growth inhibition is at least 90%.
Completion: true (1)

Prompt: Given Nc1nc(N)c(-c2ccc(Cl)c(Cl)c2)c(CCc2ccc(CNC(=O)c3cc(S(=O)(=O)F)ccc3Cl)cc2)n1 , state whether its growth inhibition is at least 90%.
Completion: false (0)
